Tested on: K-562 leukemia
methodNotes: NCI-60 one-dose screen, 48 h (100 = growth as untreated, 0 = no growth, -100 = all killed)
assayContext: 10 µM unless noted
About 83,000 compounds went through this panel and 20% of them were active in at least one assay; those are over-represented in the sample as a whole. Active and inactive are the calls of the source. How the source made its calls: active means growth percent below 10; inactive means the rest.
Listed here are molecules together with their documented growth.

{"molecule": "Brc1ccc(-n2cc(-c3nn[nH]n3)c(-c3cccs3)n2)cc1", "growth": "100% (inactive)"}
{"molecule": "C=C(C)[C@@H]1CC[C@]2(C(=O)NCCNCCN)CC[C@]3(C)[C@H](CC[C@@H]4[C@@]5(C)C/C(=C/c6ccncc6)C(=O)C(C)(C)[C@@H]5CC[C@]43C)[C@@H]12", "growth": "86.4% (inactive)"}
{"molecule": "O=C(CSc1nc2ccc([N+](=O)[O-])cc2[nH]1)Nc1ccc(F)cc1", "growth": "42.1% (inactive)"}
{"molecule": "COc1cc(CNS(=O)(=O)c2ccc(C)cc2)ccc1OCc1cn(-c2ccc(Br)cc2)nn1", "growth": "94.3% (inactive)"}
{"molecule": "CC(C)c1ccc(COCc2cc(CN3CCCC3)c(O)c3ncccc23)cc1", "growth": "3.96% (active)"}
{"molecule": "CC1(C)CC[C@]2(c3nnc(-c4ccncc4)o3)CC[C@H]3C(=CC[C@H]4[C@@]3(C)CC[C@H]3C(C)(C)C(=O)CC[C@]43C)[C@@H]2C1", "growth": "40.8% (inactive)"}
{"molecule": "O=C(Nc1ncc(Cc2ccc(Cl)c(C(F)(F)F)c2)s1)c1ccc2nnsc2c1", "growth": "24.7% (inactive)"}
{"molecule": "Cc1cnc(C(=O)NNc2nc3sc4c(c3c(=O)n2C)C(C)CCC4)cn1 (stereo not drawn)", "growth": "6.51% (active)"}
{"molecule": "S=C1CCSC(=S)N1CCCN1C(=S)CCSC1=S", "growth": "29.4% (inactive)"}
{"molecule": "CC(C)(C)n1cc(-c2ccnc(NCCNS(=O)(=O)c3cccc(F)c3)c2)c(-c2ccccc2)n1", "growth": "44.2% (inactive)"}
{"molecule": "CN1C(=O)N(C)C2Nn3c(s/c(=C\\c4ccc(C(F)(F)F)cc4)c3=O)=NC21 (stereo not drawn)", "growth": "93.3% (inactive)"}
{"molecule": "O=C1c2cc(Cl)ccc2S(=O)(=O)c2c(NCCCNCCO)nc3ccccc3c21", "growth": "0.0837% (active)"}
{"molecule": "COC(=O)c1cc(-c2ccc(OC)cc2)[nH]c1N/N=C/c1c(Cl)cccc1Cl", "growth": "0.823% (active)"}
{"molecule": "CCN(C(=O)N1CCN(c2cc3c(cc2F)c(=O)c(C(=O)O)cn3C2CC2)CC1)c1nc(-c2ccc(Cl)cc2)cs1", "growth": "12.7% (inactive)"}
{"molecule": "Cc1cccc(N2CCN(CC(O)COc3ccc(Cl)cc3)CC2)c1 (stereo not drawn)", "growth": "82.9% (inactive)"}
{"molecule": "COC(=O)/C(CCC=C(C)C)=C1\\[C@@H](OC(C)=O)C[C@@]2(C)[C@H]1C[C@@H](O)[C@H]1[C@@]3(C)CC[C@H](NCCN)[C@@H](C)[C@@H]3CC[C@@]12C", "growth": "-7.67% (active)"}
{"molecule": "O=[N+]([O-])C1C(c2ccccc2)C12c1ccccc1-c1ccccc12 (stereo not drawn)", "growth": "-12.5% (active)"}
{"molecule": "O=C(Nc1nc2ccc(F)cc2s1)c1cccnc1Nc1ccc(Cl)cc1", "growth": "5.7% (active)"}

----------
System: OVCAR-3 ovarian
methodNotes: NCI-60 one-dose screen, 48 h
assayContext: 10 µM unless noted
The panel holds about 83,000 compounds, 20% with a hit somewhere; the sample as a whole holds those more often. Calls of active or inactive are those of the source. How the source made its calls: active means growth percent below 10; inactive means the rest.
Labels: active, inactive

{"compound": "COc1cc(-c2nc3cc(Cl)c(Cl)cc3[nH]2)ccc1OCC(=O)N=Nc1c(O)[nH]c2ccc([N+](=O)[O-])cc12", "testedSystem": "OVCAR-3 ovarian", "className": "inactive"}
{"compound": "COc1ccc(C(=O)Nc2cccc(C3CC(=O)c4c(cc(OC)c(OC)c4OC)O3)c2)cc1 (stereo not drawn)", "testedSystem": "OVCAR-3 ovarian", "className": "active"}
{"compound": "O=Cc1ccc([N+](=O)[O-])s1", "testedSystem": "OVCAR-3 ovarian", "className": "inactive"}
{"compound": "COc1ccc2[nH]cc(-c3nc(-c4c[nH]c5ccncc45)cs3)c2c1", "testedSystem": "OVCAR-3 ovarian", "className": "active"}
{"compound": "COc1ccc(OC)c(C(=O)/C=C/c2cc3c(c(OC)c2OC)OCO3)c1", "testedSystem": "OVCAR-3 ovarian", "className": "inactive"}
{"compound": "COC(C(=O)[C@@H](O)[C@@H](C)O)[C@@H]1Cc2cc3cc(O[C@H]4C[C@@H](O[C@H]5C[C@@H](O)[C@H](O)C(C)O5)[C@H](O)C(C)O4)cc(O)c3c(O)c2C(=O)[C@H]1O[C@H]1C[C@@H](O[C@H]2C[C@@H](O[C@H]3C[C@@H](OC)[C@H](O)C(C)O3)[C@@H](O)C(C)O2)[C@H](O)C(C)O1 (stereo partly drawn)", "testedSystem": "OVCAR-3 ovarian", "className": "inactive"}
{"compound": "C=C(C)[C@@H]1CC[C@]2(C(=O)N3CCN(C)CC3)CC[C@]3(C)[C@H](CC[C@@H]4[C@@]5(C)CC(=C/c6ccncc6)/C(=N/O)C(C)(C)[C@@H]5CC[C@]43C)[C@@H]12", "testedSystem": "OVCAR-3 ovarian", "className": "inactive"}
{"compound": "CC1=C(Nc2ccc(N3CCN(C)CC3)cc2)C(=O)c2cncnc2C1=O", "testedSystem": "OVCAR-3 ovarian", "className": "active"}
{"compound": "CCOC(=O)c1cc(-c2ccc([N+](=O)[O-])cc2)n(-c2ccc(C(=O)O)c(O)c2)c1C", "testedSystem": "OVCAR-3 ovarian", "className": "inactive"}
{"compound": "N#CC1=C(N)Oc2c(sc3c(Br)cccc23)C1c1ccc(F)cc1 (stereo not drawn)", "testedSystem": "OVCAR-3 ovarian", "className": "active"}
{"compound": "CN[C@]12CC3(C=CC(=O)C=C3)O[C@@]1(Cc1ccc(OC)cc1)N(C)C(=O)N2", "testedSystem": "OVCAR-3 ovarian", "className": "inactive"}
{"compound": "Cc1nc(N2CCOCC2)sc1S(N)(=O)=O", "testedSystem": "OVCAR-3 ovarian", "className": "inactive"}
{"compound": "COc1cc(/C=C/C(=O)c2cccc(Nc3nc(Nc4ccccc4)nc(Nc4ccccc4)n3)c2)cc(OC)c1OC", "testedSystem": "OVCAR-3 ovarian", "className": "inactive"}
{"compound": "N#Cc1c(-c2cccs2)cc(-c2cccnc2)[nH]c1=O", "testedSystem": "OVCAR-3 ovarian", "className": "inactive"}
{"compound": "CC1Cc2c(Cl)ncnc2N(C)c2ccc(F)cc21 (stereo not drawn)", "testedSystem": "OVCAR-3 ovarian", "className": "inactive"}
{"compound": "CN(CCn1sc(=O)n(Cc2ccccc2)c1=O)Cc1ccc2c(Cl)cc(Cl)c(O)c2n1", "testedSystem": "OVCAR-3 ovarian", "className": "inactive"}
{"compound": "COc1ccc2cc(C(=O)c3coc4ccc(O)cc34)ccc2c1", "testedSystem": "OVCAR-3 ovarian", "className": "inactive"}
{"compound": "N#C/C(=C\\c1ccc(Br)cc1)n1nnc2ccc(F)cc21", "testedSystem": "OVCAR-3 ovarian", "className": "active"}
{"compound": "C=C1C(=O)O[C@H]2[C@H]1CC/C(COC(=O)NCc1ccc(Cn3c(=O)sn(CCI)c3=O)cc1)=C\\CC[C@@]1(C)O[C@@H]21", "testedSystem": "OVCAR-3 ovarian", "className": "active"}
{"compound": "O=C1c2ccc3c4ccc5c6c(ccc(c7ccc(c2c37)C(=O)N1CCC[P+](c1ccccc1)(c1ccccc1)c1ccccc1)c64)C(=O)N(CCC[P+](c1ccccc1)(c1ccccc1)c1ccccc1)C5=O", "testedSystem": "OVCAR-3 ovarian", "className": "inactive"}
{"compound": "O=C(/C=C/c1cn(-c2ccccc2)nc1-c1ccc([N+](=O)[O-])cc1)c1ccc(Cl)cc1", "testedSystem": "OVCAR-3 ovarian", "className": "inactive"}
{"compound": "CC(=O)Cc1nsc(NC(=O)c2cc(-c3cc(Cl)cc(Cl)c3)oc2C)n1", "testedSystem": "OVCAR-3 ovarian", "className": "inactive"}
{"compound": "Cc1cc2c(O)c(-c3cc(Cl)ccc3Cl)c3sc(=O)oc3c2cc1C", "testedSystem": "OVCAR-3 ovarian", "className": "inactive"}
{"compound": "COc1ccc(-c2ccc3cnc4sc(-c5ccc(OC)cc5)nc4c3n2)cc1", "testedSystem": "OVCAR-3 ovarian", "className": "inactive"}
{"compound": "CCOC(=O)C1=NN(c2ccccc2)C(=O)/C1=C\\N1C(=O)CC(=O)NC1=S", "testedSystem": "OVCAR-3 ovarian", "className": "inactive"}
{"compound": "COc1ccc(-c2nn(-c3ccccc3)cc2/C=C2/SC(=S)N(C)C2=O)cc1", "testedSystem": "OVCAR-3 ovarian", "className": "inactive"}
{"compound": "C/C(Nc1ccc(Cl)c(Cl)c1)=C1\\CCOC1=O", "testedSystem": "OVCAR-3 ovarian", "className": "inactive"}
{"compound": "OCCCC1CCN(C(Cc2ccccc2)c2ccccc2)CC1 (stereo not drawn)", "testedSystem": "OVCAR-3 ovarian", "className": "inactive"}
{"compound": "Nc1ncnc2c1N=C(c1ccc3c(c1)OCO3)CC(c1ccc([N+](=O)[O-])cc1)N2 (stereo not drawn)", "testedSystem": "OVCAR-3 ovarian", "className": "inactive"}
{"compound": "C#CCOc1ccc2ncnc(Nc3ccc(NC(=O)CCl)cc3)c2c1", "testedSystem": "OVCAR-3 ovarian", "className": "active"}
{"compound": "CCNC(=O)c1[nH]cc(-c2ccccc2)c1-c1cc(OC)c2c(c1OC)OCO2", "testedSystem": "OVCAR-3 ovarian", "className": "inactive"}
{"compound": "c1cnc2[nH]cc(-c3csc(-c4cn(CCCN5CCOCC5)c5ccccc45)n3)c2c1", "testedSystem": "OVCAR-3 ovarian", "className": "inactive"}
{"compound": "O=C1/C(=C/c2ccc(Cl)cc2)COc2ccc(O)cc21", "testedSystem": "OVCAR-3 ovarian", "className": "inactive"}
{"compound": "CN(C)CCCn1c2c(c3ncccc3c1=O)C(=O)c1ccccc1-2", "testedSystem": "OVCAR-3 ovarian", "className": "inactive"}
{"compound": "O=CC1(C2(C=O)c3ccccc3-c3ccccc32)c2ccccc2-c2ccccc21", "testedSystem": "OVCAR-3 ovarian", "className": "active"}
{"compound": "Cn1c(-c2ccc(Br)cc2)c(O)c(=O)c2c(F)cccc21", "testedSystem": "OVCAR-3 ovarian", "className": "inactive"}
{"compound": "COc1ccc2c(O)c(/C=C3\\N=Nc4ncccc43)oc2c1C[C@H]1CCNC[C@H]1F", "testedSystem": "OVCAR-3 ovarian", "className": "active"}
{"compound": "N#C/C(=C\\c1ccc2ccccc2c1)c1cc2ccccc2[nH]1", "testedSystem": "OVCAR-3 ovarian", "className": "active"}
